These data points were gathered from patent US12227500B2.

target: panel of 60 human kinases (Homo sapiens, UniProt Q16539); construct: purchased Reaction Biology Corp; test: Radiolabeled ATP kinase assay, panel of 60 kinases (Table S5); type: biochemical; settings: P38a/MAPK14; 0.1 μM; 10 μM ATP; read-out: % Enzyme Activity (relative to DSMO controls)
Sequence (Q16539 whole entry): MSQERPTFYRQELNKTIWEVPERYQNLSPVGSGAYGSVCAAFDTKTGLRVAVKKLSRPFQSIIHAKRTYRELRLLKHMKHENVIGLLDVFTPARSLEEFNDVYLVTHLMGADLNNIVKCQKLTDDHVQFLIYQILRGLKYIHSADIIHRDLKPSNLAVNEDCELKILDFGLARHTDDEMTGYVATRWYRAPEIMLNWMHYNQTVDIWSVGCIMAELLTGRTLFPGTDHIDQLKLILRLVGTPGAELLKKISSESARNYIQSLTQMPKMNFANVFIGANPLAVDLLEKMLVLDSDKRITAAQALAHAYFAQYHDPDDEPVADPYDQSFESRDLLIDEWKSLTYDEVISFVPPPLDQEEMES
# reported remaining activity at 0.1 µM; entries follow
Give the value in % but do not write % after it.

Please review the entries below; each comes with its answer.
Cc1nn(C)c(C)c1-c1c[nH]c2ncc(-c3ccc(CN4CCN(C)CC4)cc3)cc12 [Compound 7ai]
98.2
CN1CCN(Cc2ccc(-c3cnc4[nH]cc(-c5cnn(Cc6ccccc6)c5)c4c3)cc2)CC1 [Compound 7ah]
109
CN1CCN(Cc2ccc(-c3cnc4[nH]cc(-c5cccc(Cl)c5)c4c3)cc2)CC1 [Compound 7ad]
105
CN1CCN(Cc2ccc(-c3cnc4[nH]cc(-c5ccccc5Cl)c4c3)cc2)CC1 [Compound 7as]
113

Turning now to a further record.
Query :: What does the record list as remaining activity at 0.1 µM for CN1CCN(Cc2ccc(-c3cnc4[nH]cc(-c5ccc6[nH]ccc6c5)c4c3)cc2)CC1 [Compound 1, reference compound] ?
Result :: 108
